- Test system: Pseudomonas fluorescens HPPD polypeptide (wild-type and mutants)
- assay text: Coupled HPPD activity assay: turnover and residual turnover in crude HPPD polypeptide extracts with and without Cmpd. 1
- Type: biochemical
- protocol conditions: presence of 100 μM Cmpd. 1; changes in absorbance (OD) at 320 nm in the coupled assay, 30 min

molecule | Residual turnover
SEQ ID NO:24 (protein, mutant HPPD polypeptide) MADLYENPMGLMGFEFIEFASPTPGTLEPIFEIMGFTKVATHRSKNVHLYRQGEINLILNNEPNSIASYFAAEHGPSVCGMAFRVKDSQKAYNRALELGAQPIHIDTGPMELNLPAIKGIGGAPLYLIDRFGEGSSIYDIDFVYLEGVERNPVGAGLKVIDHLTHNVYRGRMVYWANFYEKLFNFREARYFDIKGEYTGLTSKAMSAPDGMIRIPLNEESSKGAGQIEEFLMQFNGEGIQHVAFLTDDLVKTWDALKKIGMRFMTAPGDEYYEMLEGRLPDHGEPVDQLQARGILLDGSSVEGDKRLLLQIFSERLMGPVFFEFIQRKGDDGFGPHSFKVLFESIERDQVRRGVLTAD | 0.147
